TEST_SYSTEM: UniProt Q64663
Sequence (Q64663 whole entry): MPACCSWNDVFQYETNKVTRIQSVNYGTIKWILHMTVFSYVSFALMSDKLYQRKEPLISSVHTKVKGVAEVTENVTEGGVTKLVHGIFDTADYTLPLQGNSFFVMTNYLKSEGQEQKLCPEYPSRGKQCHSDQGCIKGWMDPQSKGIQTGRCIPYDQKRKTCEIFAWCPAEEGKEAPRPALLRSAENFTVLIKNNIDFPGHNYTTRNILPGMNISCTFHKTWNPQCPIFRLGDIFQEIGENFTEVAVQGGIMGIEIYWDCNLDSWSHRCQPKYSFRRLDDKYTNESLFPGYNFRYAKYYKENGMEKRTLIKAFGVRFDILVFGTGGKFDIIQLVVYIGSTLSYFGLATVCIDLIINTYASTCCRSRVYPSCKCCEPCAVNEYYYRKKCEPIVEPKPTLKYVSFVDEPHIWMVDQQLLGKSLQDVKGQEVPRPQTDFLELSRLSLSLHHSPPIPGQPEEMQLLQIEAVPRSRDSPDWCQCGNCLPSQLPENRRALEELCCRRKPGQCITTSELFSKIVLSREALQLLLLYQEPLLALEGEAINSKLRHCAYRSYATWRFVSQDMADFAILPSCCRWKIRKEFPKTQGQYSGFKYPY
PROTOCOL_DETAILS: Ca2+ flux (FLIPR) in 1321N1 cells expressing recombinant rat P2X7 channel
DETAILS: rat P2X7, 250 μM BzATP
RESULT_TYPE: IC50 (µM)
Could you give me the number in µM? Just the number is fine.

Record excerpt, results attached:
IN: Can you share its IC50? I mean this compound: Cc1cc(-c2nnc3n2C[C@@H]2CC[C@H]3N2C(=O)c2cccc(C(F)(F)F)c2Cl)[nH]n1
OUT: 4.1

IN: Quick one: IC50 for O=C(c1cccc(C(F)(F)F)c1Cl)N1[C@H]2CC[C@@H]1c1nnc(-c3ncccn3)n1C2 ?
OUT: 0.253

IN: Record request: IC50 value, item O=C(c1cccc(C(F)(F)F)c1Cl)N1[C@H]2CC[C@@H]1c1nnc(-c3ccccn3)n1C2
OUT: 1.58

IN: Request the reported IC50 associated with O=C(c1cccc(C(F)(F)F)c1Cl)N1[C@H]2CC[C@@H]1c1nnc(-c3ccc(F)cc3)n1C2
OUT: 10

Next compound, please.
IN: Give its IC50 value. Item: O=C(c1ccnc(C(F)(F)F)c1Cl)N1[C@H]2CC[C@@H]1c1nnc(-c3ccc(Cl)s3)n1C2
OUT: 2.34
